Test system: lung carcinoma cell line NCI-H460
Assay: cells
Format: cell-based, human
Settings: XTT, 45 h incubation
PROPERTY: IC50 NCI-H460 (ng/mL)

[
  {
    "MOLECULE": "C/C=C/C(O)C(C)(C(=O)OC)C1C\\C=C/C=C/C=C/c2nc(co2)C(=O)OC(C(C)(C(=O)OC)C(/C=C/C)OC(=O)CCC(=O)NCCCC[C@H](NC(=O)[C@H](Cc2ccc(O)cc2)NC(=O)[C@H](CO)NC(=O)[C@H](Cc2c[nH]c3ccccc23)NC(=O)[C@H](Cc2cnc[nH]2)NC(=O)[C@@H]2CCC(=O)N2)C(=O)N[C@@H](CC(C)C)C(=O)N[C@@H](CCCNC(=N)N)C(=O)N2CCC[C@H]2C(=O)NCC(N)=O)C\\C=C/C=C/C=C/c2nc(co2)C(=O)O1 (stereo partly shown)",
    "PROPERTY": "IC50 NCI-H460",
    "RECORDED VALUE": 9.235
  },
  {
    "MOLECULE": "C/C=C/C(O)C(C)(C)C1C/C=C\\C2OC2C=CC(OC)Cc2nc(co2)C(=O)OC(C(C)(C)C(O)/C=C/C)C/C=C\\C2OC2/C=C\\C=Cc2nc(co2)C(=O)O1 (stereo not shown) [disorazol E1, disorazole E1, reference compound]",
    "PROPERTY": "IC50 NCI-H460",
    "RECORDED VALUE": 0.065
  },
  {
    "MOLECULE": "C/C=C/[C@H](O)C(C)(C)[C@@H]1C\\C=C/C=C\\C=C\\[C@H](OC)Cc2nc(co2)C(=O)O[C@H](C(C)(C)[C@@H](O)/C=C/C)C/C=C\\[C@H]2O[C@H]2/C=C/C=C\\c2nc(co2)C(=O)O1 [disorazol A1, disorazole A1, reference compound]",
    "PROPERTY": "IC50 NCI-H460",
    "RECORDED VALUE": 0.022
  },
  {
    "MOLECULE": "COc1cccc2c1C(=O)c1c(O)c3c(c(O)c1C2=O)C[C@@](O)(C(=O)COC(=O)CCCC(=O)NCCCC[C@@H](NC(=O)[C@H](Cc1ccc(O)cc1)NC(=O)[C@H](CO)NC(=O)[C@H](Cc1c[nH]c2ccccc12)NC(=O)[C@H](Cc1c[nH]cn1)NC(=O)[C@@H]1CCC(=O)N1)C(=O)N[C@@H](CC(C)C)C(=O)N[C@@H](CCCNC(=N)N)C(=O)N1CCC[C@H]1C(=O)NCC(N)=O)C[C@@H]3O[C@H]1C[C@H](N)[C@H](O)[C@H](C)O1 [AN-152, reference compound]",
    "PROPERTY": "IC50 NCI-H460",
    "RECORDED VALUE": 558
  }
]

---

Listed compounds paired with reported IC50 SF-268
System: human glioblastoma cell line SF-268
Experiment: cells
Format: cell-based
Settings: XTT, 45 h incubation
PROPERTY: IC50 SF-268 (ng/mL)

[
  {
    "COMPOUND": "C/C=C/[C@H](O)C(C)(C)[C@@H]1C\\C=C/C=C\\C=C\\[C@H](OC)Cc2nc(co2)C(=O)O[C@H](C(C)(C)[C@@H](O)/C=C/C)C/C=C\\[C@H]2O[C@H]2/C=C/C=C\\c2nc(co2)C(=O)O1 [disorazol A1, disorazole A1, reference compound]",
    "PROPERTY": "IC50 SF-268",
    "RECORDED VALUE": 0.125
  },
  {
    "COMPOUND": "C/C=C/C(O)C(C)(C)C1C/C=C\\C2OC2C=CC(OC)Cc2nc(co2)C(=O)OC(C(C)(C)C(O)/C=C/C)C/C=C\\C2OC2/C=C\\C=Cc2nc(co2)C(=O)O1 (stereo not shown) [disorazol E1, disorazole E1, reference compound]",
    "PROPERTY": "IC50 SF-268",
    "RECORDED VALUE": 0.474
  },
  {
    "COMPOUND": "COc1cccc2c1C(=O)c1c(O)c3c(c(O)c1C2=O)C[C@@](O)(C(=O)COC(=O)CCCC(=O)NCCCC[C@@H](NC(=O)[C@H](Cc1ccc(O)cc1)NC(=O)[C@H](CO)NC(=O)[C@H](Cc1c[nH]c2ccccc12)NC(=O)[C@H](Cc1c[nH]cn1)NC(=O)[C@@H]1CCC(=O)N1)C(=O)N[C@@H](CC(C)C)C(=O)N[C@@H](CCCNC(=N)N)C(=O)N1CCC[C@H]1C(=O)NCC(N)=O)C[C@@H]3O[C@H]1C[C@H](N)[C@H](O)[C@H](C)O1 [AN-152, reference compound]",
    "PROPERTY": "IC50 SF-268",
    "RECORDED VALUE": 1258
  },
  {
    "COMPOUND": "C/C=C/C(O)C(C)(C(=O)OC)C1C\\C=C/C=C/C=C/c2nc(co2)C(=O)OC(C(C)(C(=O)OC)C(/C=C/C)OC(=O)CCC(=O)NCCCC[C@H](NC(=O)[C@H](Cc2ccc(O)cc2)NC(=O)[C@H](CO)NC(=O)[C@H](Cc2c[nH]c3ccccc23)NC(=O)[C@H](Cc2cnc[nH]2)NC(=O)[C@@H]2CCC(=O)N2)C(=O)N[C@@H](CC(C)C)C(=O)N[C@@H](CCCNC(=N)N)C(=O)N2CCC[C@H]2C(=O)NCC(N)=O)C\\C=C/C=C/C=C/c2nc(co2)C(=O)O1 (stereo partly shown)",
    "PROPERTY": "IC50 SF-268",
    "RECORDED VALUE": 17.8
  }
]
